Taken from ChEMBL document CHEMBL4765359.

- Experimental System: Dual specificity protein kinase CLK4 (Homo sapiens)
- Sequence (Q9HAZ1 whole entry): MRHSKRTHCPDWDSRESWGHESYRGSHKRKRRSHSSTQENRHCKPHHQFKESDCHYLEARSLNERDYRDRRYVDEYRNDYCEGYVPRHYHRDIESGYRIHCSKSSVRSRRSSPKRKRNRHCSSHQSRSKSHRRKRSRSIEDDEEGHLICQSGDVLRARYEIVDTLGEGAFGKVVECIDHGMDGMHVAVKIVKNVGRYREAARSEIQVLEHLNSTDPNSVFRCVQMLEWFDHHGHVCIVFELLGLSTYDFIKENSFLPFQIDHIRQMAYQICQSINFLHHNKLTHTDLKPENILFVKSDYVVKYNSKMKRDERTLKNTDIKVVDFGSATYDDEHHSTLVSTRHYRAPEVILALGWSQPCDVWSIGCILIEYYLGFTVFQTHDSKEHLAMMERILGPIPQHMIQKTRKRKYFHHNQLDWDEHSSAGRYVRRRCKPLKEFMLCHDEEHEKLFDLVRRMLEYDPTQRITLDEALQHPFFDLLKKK
- Assay Details: Inhibition of CLK4 (unknown origin)
pIC50: −log10 of the molar value.
Endpoint: pIC50

(Q) What value of pIC50 has been recorded for this entry: `O=C(Nc1ccc2c(c1)Oc1ncccc1C(=O)N2c1ccncc1)Nc1ccc(Cl)c(C(F)(F)F)c1`
(A) < 5.00

----------
- Experimental System: Cyclin-dependent kinase 8 (Homo sapiens, UniProt P49336)
- Sequence (P49336 whole entry): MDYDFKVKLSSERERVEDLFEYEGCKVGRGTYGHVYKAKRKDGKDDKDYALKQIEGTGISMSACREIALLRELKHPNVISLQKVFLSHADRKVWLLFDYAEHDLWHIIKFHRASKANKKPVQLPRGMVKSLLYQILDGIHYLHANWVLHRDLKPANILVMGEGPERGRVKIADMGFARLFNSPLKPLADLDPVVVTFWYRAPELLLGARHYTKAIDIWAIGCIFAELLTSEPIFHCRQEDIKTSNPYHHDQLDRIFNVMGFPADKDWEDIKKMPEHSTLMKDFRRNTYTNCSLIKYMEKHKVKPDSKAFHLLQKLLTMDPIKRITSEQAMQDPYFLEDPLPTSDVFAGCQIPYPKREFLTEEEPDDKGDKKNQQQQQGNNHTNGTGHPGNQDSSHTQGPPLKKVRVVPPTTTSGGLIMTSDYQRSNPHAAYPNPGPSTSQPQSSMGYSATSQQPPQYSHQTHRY
- Assay Details: Inhibition of CDK8 (unknown origin)
Endpoint: pIC50
Conceptually, pIC50 converts a concentration in mol/L into minus its log10.

Answered examples (4):
{"columns": ["Smiles Text", "Experimental System", "pIC50"],
 "data": [
  ["O=C(Nc1ccc2c(c1)Oc1ncccc1C(=O)N2c1ccncc1)Nc1ccc(Cl)c(C(F)(F)F)c1", "Cyclin-dependent kinase 8 (Homo sapiens, UniProt P49336)", 8.08],
  ["O=C(Nc1ccccc1)Nc1ccc2c(c1)Oc1ccccc1C(=O)N2c1ccncc1", "Cyclin-dependent kinase 8 (Homo sapiens, UniProt P49336)", 5.94],
  ["O=C(Nc1ccccc1)Nc1ccc2c(c1)Oc1ncccc1C(=O)N2Cc1ccncc1", "Cyclin-dependent kinase 8 (Homo sapiens, UniProt P49336)", 5.75],
  ["O=C(Nc1ccccc1)Nc1ccc2c(c1)Oc1ncccc1C(=O)N2c1ccoc1", "Cyclin-dependent kinase 8 (Homo sapiens, UniProt P49336)", 6.23]
]}

Shifting focus to the compound that follows.
(Q) I'm curious: which pIC50 was measured for `O=C(Cc1ccccc1)Nc1ccc2c(c1)Oc1ncccc1C(=O)N2c1ccncc1` tested on Cyclin-dependent kinase 8 (Homo sapiens, UniProt P49336)?
(A) 5.60
